- experimental.target: RecA (Escherichia coli, UniProt P0A7G6 P0A7G6:2-353)
- Sequence (P0A7G6 2-353, one chain of several): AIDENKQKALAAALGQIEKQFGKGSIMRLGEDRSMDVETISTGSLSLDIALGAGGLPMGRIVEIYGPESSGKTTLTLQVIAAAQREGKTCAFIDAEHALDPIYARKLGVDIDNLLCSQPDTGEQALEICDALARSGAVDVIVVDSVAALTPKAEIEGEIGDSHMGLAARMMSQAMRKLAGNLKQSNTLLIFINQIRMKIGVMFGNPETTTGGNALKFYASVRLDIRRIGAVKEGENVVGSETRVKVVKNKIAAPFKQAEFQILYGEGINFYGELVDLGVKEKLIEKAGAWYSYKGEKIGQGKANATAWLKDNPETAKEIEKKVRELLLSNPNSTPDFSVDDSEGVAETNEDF
- experiment.notes: EMSA; Y-arm on OligoT/OligoU

| binder | binding result |
| --- | --- |
| GCAGACTTCTCCTCAGGAGTCAGGTGCACCATGGT (ssDNA) [OligoY incoming 35-mer] | binds |
| GCAGACTTCTCCTCAGGAGTCAGGT (ssDNA) [OligoW incoming 25-mer] | binds |
| GCAGACTTCTCCTCAGGAGTCAGGTGCACCATGGTGTCTG (ssDNA) [OligoZ incoming 40-mer] | binds |
| GCAGACTTCTCCTCAGGAGTCAGGTGCACCATGGTGTCTGTTTGAG (ssDNA) [Oligo1 incoming 46-mer] | binds |
